Experiment: soluble on expression in E. coli; label from the status in PepcDB or PDB records

{"seq string": "MNSAWALLRLASPQLPIGGYSYSQGLEMAVEQSIVIDPQTAGRWIGDQLLLNLARFEAPLLLAHCEAAAVGDWGQLLQVSEQHRASRETRELHQESRQMGYSLQQLLNGLPELDRDARRFLEQTTEPHLALGWALAARTWRISPQDALAAWLWSWLENQLAVLMKTLPLGQQAAQRLTSELLPLLQQAQVNASAQDTHPAGSAAFGLALASMAHERQYSRLFRS", "soluble on expression in E. coli": "soluble"}
{"seq string": "MQTSLRAPTLEKVSSRPRGSRRRSRKTFTAKLTSPTFRRWSSTEKWTVASREIGSARKRFCSTRTPGAAIHSSNRSRSALRYDHIDHRALARKSPHLMPPTFIKEEIMDDELDEVKEEVVSVGEAALPTPKVELNMDHPEKDLIISISVYLGYTRTLQYHEIRLGRLMKITDRLELTGDHTLRDLKNAFSCPIDFSFSDDFSEKKPSFKDMAKNKWPSTMFFIHDTDESHVNVEFPRRLVERNFRRIACDTCKEASAHWMIVDHDNLLPNSPGYLCSSCYKEFCFDVNGNKVCQFKAVPYCDRKDIGDGRQFFTELDL", "soluble on expression in E. coli": "not soluble"}
{"seq string": "MRMEAGEAAPPAGAGGRATGGWGKWVRLNVGGTVFLTTRQTLCREQKSFLSRLCQGEELQSDRDETGAYLIDRDPTYFGPILNFLRHGKLVLDKDMAEEGVLEEAEFYNIGPLIRIIKDRMEEKDYTVTQVPPKHVYRVLQCQEEELTQMVSTMSDGWRFEQLVNIGSSYNYGSEDQAEFLCVVSKELHSTPNGLSSESSRKTKSTEEQLEEQQQQEEEVEEVEVEQVQVEADAQEKGAANPQEDDC", "soluble on expression in E. coli": "soluble"}
{"seq string": "GSKGDSKETRLTLMEEVLLLGLKDREGYTSFWNDCISSGLRGCMLIELALRGRLQLEACGMRRKSLLTRKVICKSDAPTGDVLLDEALKHVKETQPPETVQNWIELLSGETWNPLKLHYQLRNVRERLAKNLVEKGVLTTEKQNFLLFDMTTHPLTNNNIKQRLIKKVQEAVLDKWVNDPHRMDRRLLALIYLAHASDVLENAFAPLLDEQYDLATKRVRQLLDLDPEVECLKANTNEVLWAVVAAFTK", "soluble on expression in E. coli": "soluble"}
{"seq string": "MSLYAAYAGNLDPRLMTRRAPHSPLRATGWLNDWRLTFGGEHMGWEGALATIVEAPRSQVFVALYDIAPMDEDSMDRWEGVGLDIYRRMRVRVHTLEGEEAAWVYVLNGYEGGLPSARYLGELADAAESAGAPHDYVMELRKRPCLEHHHHHH", "soluble on expression in E. coli": "soluble"}
{"seq string": "MGSDKIHHHHHHMQKTPALLSDIGNNEDASVYQISPDLALVQTLDFITPIVDSAYHFGAIAAANALSDVFAMGAEVINALNIVGFDTCNHDLNILKELLEGANDKVKECNALVVGGHTIESTELFFGLSVTGKVHPSKFIANNTSKIGDCIILTKPLGTGILSTALKAQMLNQKHLDIMLKNMIELNYKASQIALKFHPSAMSDVTGFGLLGHLKEMLNKNISFEIFESELPFLDGVKEYFNMGLIPAGAYKNLEFIKELTPDLNEEKLLLCDPQTSGGLLISISEKDSLECLKKLEDENIQAKIIAKVVNKQENDIIIS", "soluble on expression in E. coli": "not soluble"}
{"seq string": "MAHHHHHHMAARTDDPRLLSLFSAQREEDADIVIIGFPYDEGCVRNGGRAGAKKGPAAFRFFLQRLGSVNNLELNVDASHLKLYDAGDITASTLEEAHEKLESKVFTVLARGAFPFVIGGGNDQSAPNGRAMLRAFPGDVGVINVDSHLDVRPPLQDGRVHSGTPFRQLLEESSFSGKRFVEFACQGSQCGALHAQYVRDHQGHLMWLSEVRKKGAVAALEDAFGLTGKNTFFSFDVDSLKSSDMPGVSCPAAVGLSAQEAFDMCFLAGKTPTVMMMDMSELNPLVEEYRSPRVAVYMFYHFVLGFATRPKPKAEN", "soluble on expression in E. coli": "soluble"}
{"seq string": "MVKDLLEERARELGLLFAWAPLDLPQEAEARHRAWLEAGRHGGMAYLEAPERFHPRKRFPWAKSALLLFAPYAYPDPGTPPGGLRVGRVARYAWTRDYHLVLGEALKALEETARGLGLKAKGYVDHGPLPERTLAALSGAGWIGKSGYFLSQAFGVHAFIGVLLTPLEVEAAPLHPSRCGRCARCLSACPTEALLGDGTLDARACVSYLTIEHKGPIPPSLWPGIGDWLFGCDLCGEACPWERFGKVWKALRPEPELAHPDLLDFFRLSGRAFGRKYAGTAFLRAGRARMARNALIVLFNLGLGEALFLEATRDPNPLVRRTALRALHLMGKPLDPFLQDPGLREEALALLGEAPEAVHLLQDGREAPGPEVKEQGA", "soluble on expression in E. coli": "not soluble"}
{"seq string": "MNACVSVVCYKSKTLSNGENPLMLQVSKGGKRKYQSLGISINPKYWDFTRNKPKPNCPNKEYIQKIILDKQRELQQRMLELNSEQKEYTTTTLLNNENTKFELKTVSMFYKELIEQYTREDKCGNRLIYKGSFNSLKVFTNGKLDIPFNEIDIAWLNKYEKWLRSKGNRETTISLLFRTLRSAYNKAIKAKCARKSDYPFDDYKINKFDTTTQKRAIAKTDVLKFTTEVQPIGKQQYMELSKDIFVFSYLCGGINFTDIANLTNENIQNGRLHYIRQKTKKPIKIGIPQEAMQIIEKYSKESKG", "soluble on expression in E. coli": "not soluble"}
{"seq string": "MGSDKIHHHHHHMENIALLGIDLGKHIFHVHAQDKAGHQLWRRKLNRKQLVELVANTPACRIVMESCSGAHHFARRFLQFGHDVKLIAPQYVKPFVKGNKNDFVDAEAICEAASRPAMRFAAVRNEQQQTISALHRTRDMLIRSRGSAHNQIHAYLVEFGVAIGTGPAAIRKLPAVLQAMTYRRALSPCWSNFGITFFISTSRSPLSSAN", "soluble on expression in E. coli": "not soluble"}
{"seq string": "MGQLPPRARAFFAAQRPLRVLMPGCGSAADLPPLLAMGHDVLAVDFSEAAIELAARQWPEAAGRLLLADFFQLQMPAFDCLFERAFLCALPVGMRSQYAERVAALIAPGGALAGVFFVADTERGPPFGMQAEALRELLSPWFELEEDLALDESVAVFRNRERWMVWRRRGLEHHHHHH", "soluble on expression in E. coli": "not soluble"}

Taken from the DeepSol protein solubility set.
